Tested on: NCI-H1623 (Lung Adenocarcinoma)
test_protocol: combination Emax (second highest fraction inhibited in the dose matrix, 72 h); higher = more inhibition; extreme values may be limits of the assay
Record yes (1) whenever combination Emax is at 0.4 or higher; record no (0) when lower.

Prompt line: For this compound, is measured combination Emax 0.4 or higher? CC(=O)c1c(C)c2cnc(Nc3ccc(N4CCNCC4)cn3)nc2n(C2CCCC2)c1=O [Palbociclib] + CN(CC[C@H](CSC1=CC=CC=C1)NC2=C(C=C(C=C2)S(=O)(=O)NC(=O)C3=CC=C(C=C3)N4CCC(CC4)[C@H](C5=CC=CC=C5C6=CC=C(C=C6)Cl)O)S(=O)(=O)C(F)(F)F)CCO [AZD4320] (first compound max 10 µM, 7x7, partner max 1 µM)
Response line: no (0)

Prompt line: For this compound, is measured combination Emax 0.4 or higher? Cc1c2c(nn1C)CSCc1cc(n(C)n1)CSc1cc(c3ccccc3c1)OCCCc1c(C(=O)O)n(C)c3c-2c(Cl)ccc13 [AZD5991] + CC1(C)CCC(CN2CCN(c3ccc(C(=O)NS(=O)(=O)c4ccc(NCC5CCOCC5)c([N+](=O)[O-])c4)c(Oc4cnc5[nH]ccc5c4)c3)CC2)=C(c2ccc(Cl)cc2)C1 [Venetoclax] (first compound max 1 µM, 7x7, partner max 1 µM)
Response line: yes (1)

Prompt line: For this compound, is measured combination Emax 0.4 or higher? Cc1cc2ncnn2cc1Nc1ncc2c(n1)n(C1CCOCC1)c(=O)n2C [AZD7648] + C[C@@H]1COCCN1C2=NC(=NC(=C2)C3(CC3)[S@](=N)(=O)C)C4=C5C=CNC5=NC=C4 [AZD6738] (first compound max 10 µM, 7x7, partner max 10 µM)
Response line: yes (1)

Prompt line: For this compound, is measured combination Emax 0.4 or higher? COc1cccc(OCCCN)c1-c1cc(Nc2cnc(C#N)cn2)n[nH]1 [Prexasertib] + CCc1c2c(nc3ccc(O)cc13)-c1cc3c(c(=O)n1C2)COC(=O)[C@]3(O)CC [SN-38] (first compound max 1 µM, 7x7, partner max 0.3 µM)
Response line: yes (1)

Prompt line: For this compound, is measured combination Emax 0.4 or higher? Cn1cnc2c(F)c(Nc3ccc(Br)cc3Cl)c(C(=O)NOCCO)cc21 [Selumetinib] + CCN(CCO)CCCOc1ccc2c(Nc3cc(CC(=O)Nc4cccc(F)c4)[nH]n3)ncnc2c1 [AZD2811] (first compound max 10 µM, 7x7, partner max 1 µM)
Response line: no (0)

Prompt line: For this compound, is measured combination Emax 0.4 or higher? COc1cc2c(cc1OCCCCCOc1cc3c(cc1OC)C(=O)N1C=C(C)C[C@H]1C=N3)N=C[C@@H]1CC(C)=CN1C2=O [SG3199] + O=C(c1cc(Cc2n[nH]c(=O)c3ccccc23)ccc1F)N1CCN(C(=O)C2CC2)CC1 [Olaparib] (first compound max 0.001 µM, 7x7, partner max 10 µM)
Response line: no (0)

Prompt line: For this compound, is measured combination Emax 0.4 or higher? NC1(C(=O)N[C@@H](CCO)c2ccc(Cl)cc2)CCN(c2ncnc3[nH]ccc23)CC1 [Capivasertib] + CCN(CCO)CCCOc1ccc2c(Nc3cc(CC(=O)Nc4cccc(F)c4)[nH]n3)ncnc2c1 [AZD2811] (first compound max 10 µM, 7x7, partner max 1 µM)
Response line: yes (1)
